target of assay: UniProt P56817
Sequence (P56817 whole entry): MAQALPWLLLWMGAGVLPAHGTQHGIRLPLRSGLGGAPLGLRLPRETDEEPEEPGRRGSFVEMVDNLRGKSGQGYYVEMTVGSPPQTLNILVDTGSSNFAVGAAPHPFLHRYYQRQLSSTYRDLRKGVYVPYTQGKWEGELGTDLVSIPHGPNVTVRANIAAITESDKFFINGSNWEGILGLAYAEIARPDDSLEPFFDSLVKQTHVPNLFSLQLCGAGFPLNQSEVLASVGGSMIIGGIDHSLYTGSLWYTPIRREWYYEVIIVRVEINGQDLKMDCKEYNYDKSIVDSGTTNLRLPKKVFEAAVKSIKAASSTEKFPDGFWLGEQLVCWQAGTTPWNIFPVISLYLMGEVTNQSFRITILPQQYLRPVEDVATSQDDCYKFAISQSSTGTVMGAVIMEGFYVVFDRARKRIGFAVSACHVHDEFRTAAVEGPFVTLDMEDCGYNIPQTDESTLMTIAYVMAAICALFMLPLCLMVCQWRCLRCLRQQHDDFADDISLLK
test name: Inhibition of recombinant human BACE 1 using Rh-EVNL-DAEFK-Quencher as substrate incubated for 60 mins by fluorescence based assay
quantity name: IC50 (µM)
Numbers only, in µM.

I am curious: what IC50 value has been reported for "O=C(/C=C/c1ccccc1)NCCc1cc2cc(O)ccc2[nH]1" ?
86.7

----------
target of assay: Epidermal growth factor receptor (Homo sapiens)
Sequence (P00533 whole entry): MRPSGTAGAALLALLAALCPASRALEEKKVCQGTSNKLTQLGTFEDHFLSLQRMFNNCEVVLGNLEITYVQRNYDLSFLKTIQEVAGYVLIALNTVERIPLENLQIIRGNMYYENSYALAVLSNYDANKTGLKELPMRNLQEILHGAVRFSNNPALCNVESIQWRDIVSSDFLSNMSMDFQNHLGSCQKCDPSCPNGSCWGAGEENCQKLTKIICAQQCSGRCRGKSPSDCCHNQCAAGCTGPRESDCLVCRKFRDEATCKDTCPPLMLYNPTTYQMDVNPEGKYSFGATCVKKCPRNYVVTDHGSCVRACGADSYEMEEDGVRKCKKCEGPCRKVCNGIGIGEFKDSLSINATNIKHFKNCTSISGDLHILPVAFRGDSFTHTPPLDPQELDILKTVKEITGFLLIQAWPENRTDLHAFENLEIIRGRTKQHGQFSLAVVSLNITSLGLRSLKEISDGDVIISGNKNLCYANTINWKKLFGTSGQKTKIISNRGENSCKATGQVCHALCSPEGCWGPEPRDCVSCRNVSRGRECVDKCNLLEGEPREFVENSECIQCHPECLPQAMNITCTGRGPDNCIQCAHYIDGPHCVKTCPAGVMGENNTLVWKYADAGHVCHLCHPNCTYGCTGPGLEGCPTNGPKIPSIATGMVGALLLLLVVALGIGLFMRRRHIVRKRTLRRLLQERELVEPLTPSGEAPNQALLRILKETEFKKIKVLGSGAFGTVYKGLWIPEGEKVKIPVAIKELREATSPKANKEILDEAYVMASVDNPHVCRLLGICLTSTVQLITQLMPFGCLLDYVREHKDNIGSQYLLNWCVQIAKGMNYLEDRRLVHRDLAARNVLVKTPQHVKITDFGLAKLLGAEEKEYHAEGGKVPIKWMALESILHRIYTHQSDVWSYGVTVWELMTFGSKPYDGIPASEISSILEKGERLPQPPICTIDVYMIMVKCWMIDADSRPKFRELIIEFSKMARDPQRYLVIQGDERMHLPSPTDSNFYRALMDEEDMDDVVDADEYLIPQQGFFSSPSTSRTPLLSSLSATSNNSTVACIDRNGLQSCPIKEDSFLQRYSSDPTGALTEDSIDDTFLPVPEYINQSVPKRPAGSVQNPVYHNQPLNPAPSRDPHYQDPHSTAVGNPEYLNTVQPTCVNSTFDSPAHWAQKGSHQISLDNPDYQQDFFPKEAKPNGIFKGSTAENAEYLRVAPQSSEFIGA
quantity name: pIC50
One number for each entry, as −log10 of the molar value.

Which pIC50 value is on record for "COc1ccc(/C=C/C(=O)Nc2cc3c(Nc4ccc(F)c(Cl)c4)ncnc3cc2O[C@@H]2CCOC2)cc1" ?
8.05

----------
target of assay: B2 bradykinin receptor (Cavia porcellus, UniProt O70526)
Sequence (O70526 whole entry): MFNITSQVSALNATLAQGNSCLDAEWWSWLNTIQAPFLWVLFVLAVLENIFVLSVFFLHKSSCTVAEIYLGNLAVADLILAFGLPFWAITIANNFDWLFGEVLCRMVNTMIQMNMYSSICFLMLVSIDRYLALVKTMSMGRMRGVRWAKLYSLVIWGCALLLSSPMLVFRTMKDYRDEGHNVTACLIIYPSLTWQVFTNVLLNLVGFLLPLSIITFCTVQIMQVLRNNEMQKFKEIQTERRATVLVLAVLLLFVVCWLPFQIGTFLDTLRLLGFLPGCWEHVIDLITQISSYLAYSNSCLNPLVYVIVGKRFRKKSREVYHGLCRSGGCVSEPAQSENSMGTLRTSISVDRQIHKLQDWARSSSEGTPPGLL
test name: Displacement of [3H]BK from Bradykinin B2 Receptor in guinea pig ileum by liquid scintillation counter
Type: tissue-based
quantity name: pIC50
Give bare numbers, as −log10 of the molar value.

Dear colleague, I am looking for the recorded pIC50 of the following compound: "CNC(=O)c1ccc(/C=C/C(=O)NCC(=O)N(C)c2ccc(Cl)c(COc3cccc4ccc(C)nc34)c2Cl)cn1"
9.34

----------
target of assay: Vascular endothelial growth factor receptor 2 (Homo sapiens, UniProt P35968)
Sequence (P35968 whole entry): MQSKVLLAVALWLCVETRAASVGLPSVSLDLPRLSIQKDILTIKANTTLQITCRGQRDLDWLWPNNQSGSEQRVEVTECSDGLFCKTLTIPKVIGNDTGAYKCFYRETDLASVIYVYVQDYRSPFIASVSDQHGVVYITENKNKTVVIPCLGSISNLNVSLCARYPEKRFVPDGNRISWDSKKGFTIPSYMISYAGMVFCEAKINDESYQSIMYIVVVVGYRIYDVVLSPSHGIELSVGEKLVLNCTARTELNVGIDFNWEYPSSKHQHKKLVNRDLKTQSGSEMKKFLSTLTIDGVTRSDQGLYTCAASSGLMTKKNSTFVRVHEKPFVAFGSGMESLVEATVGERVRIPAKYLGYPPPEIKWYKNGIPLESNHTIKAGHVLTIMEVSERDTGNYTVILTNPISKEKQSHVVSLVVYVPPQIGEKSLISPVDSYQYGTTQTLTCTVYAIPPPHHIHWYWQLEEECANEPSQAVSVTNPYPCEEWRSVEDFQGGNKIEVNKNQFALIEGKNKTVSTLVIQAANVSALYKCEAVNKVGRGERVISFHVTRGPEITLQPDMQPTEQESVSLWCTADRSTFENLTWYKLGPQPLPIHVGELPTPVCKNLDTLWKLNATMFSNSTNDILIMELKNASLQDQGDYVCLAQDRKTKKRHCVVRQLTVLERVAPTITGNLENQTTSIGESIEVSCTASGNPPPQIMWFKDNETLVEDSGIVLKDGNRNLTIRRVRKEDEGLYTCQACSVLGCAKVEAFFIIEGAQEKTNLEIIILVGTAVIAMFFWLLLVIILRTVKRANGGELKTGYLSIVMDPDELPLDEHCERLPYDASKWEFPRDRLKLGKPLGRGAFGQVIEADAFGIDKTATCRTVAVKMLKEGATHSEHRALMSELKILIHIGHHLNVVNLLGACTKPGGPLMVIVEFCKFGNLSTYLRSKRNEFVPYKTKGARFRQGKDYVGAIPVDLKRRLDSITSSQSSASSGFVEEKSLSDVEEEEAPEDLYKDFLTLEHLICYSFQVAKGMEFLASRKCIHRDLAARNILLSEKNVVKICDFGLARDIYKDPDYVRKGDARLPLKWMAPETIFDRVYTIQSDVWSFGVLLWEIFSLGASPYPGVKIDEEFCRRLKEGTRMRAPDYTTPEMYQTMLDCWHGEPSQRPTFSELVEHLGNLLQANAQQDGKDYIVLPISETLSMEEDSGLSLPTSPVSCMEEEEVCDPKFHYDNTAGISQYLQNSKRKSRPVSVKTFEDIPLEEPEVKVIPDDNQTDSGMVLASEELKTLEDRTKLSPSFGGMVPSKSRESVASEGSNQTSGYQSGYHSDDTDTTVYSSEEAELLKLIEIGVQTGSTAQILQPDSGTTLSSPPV
quantity name: pIC50
Answers are plain numbers, as −log10 of the molar value.

Entry "COc1cc(/C=C/C(=O)Nc2cc3c(Nc4ccc(F)c(Cl)c4)ncnc3cc2O[C@@H]2CCOC2)cc(OC)c1OC" has what pIC50?
8.44

----------
Test system: DU-145
test name: Antiproliferative activity against human DU145 cells assessed as reduction in cell viability incubated for 48 hrs by MTT assay
Format: functional, cell-based
recorded conditions: DU-145, 48 h
quantity name: IC50
I'd appreciate it if you included the unit after the number.

structure: C=CCOc1cc(/C=C/C(=O)Nc2cc(OC)c(OC)c(OC)c2)ccc1N/C=C\C(=O)c1ccc(OC)c([N+](=O)[O-])c1
IC50: 8.91 µM

Shifting focus to the molecule that follows.
State the recorded IC50 for this entry: "C=CCOc1cc(/C=C/C(=O)Nc2cc(OC)c(OC)c(OC)c2)ccc1N/C=C\C(=O)c1cc(N)c(OC)c(OC)c1"
7.48 µM
